Test system: expanded OPCs
Test: cells
Details: alamarBlue viability of expanded OPCs, compound at 10 µM, relative to DMSO control
I'd be grateful if you could share measured 10 µM (% DMSO) for these entries.
Answer format: numeric, % DMSO implied, no suffix.

Task: Which 10 µM (% DMSO) value belongs to CCOC(=O)C1=C(C)NC(C)=C(C(=O)OC)C1c1cccc(Cl)c1Cl (stereo not shown) ?
Result: 18.3

Task: Give the measured 10 µM (% DMSO) of `CC1(C)S[C@@H]2[C@H](NC(=O)[C@H](N)c3ccc(O)cc3)C(=O)N2[C@H]1C(=O)O` .
Result: 96.1

Task: # get_value(readout='10 µM (% DMSO)', item= `CN/C(=N/CCSCc1nc[nH]c1C)NC#N` )
Result: 92.3

Task: # input molecule: `CO[C@@]1(NC(=O)Cc2cccs2)C(=O)N2C(C(=O)O)=C(COC(N)=O)CS[C@@H]21` ; wanted: its 10 µM (% DMSO)
Result: 85.5

* * *

Tested on: expanded OPCs
Test: cells
Details: alamarBlue viability of expanded OPCs, compound at 0.1 µM, relative to DMSO control
Reported Endpoint: 0.1 µM (% DMSO)
Give the value in % DMSO but do not write % DMSO after it.

Task: What value of 0.1 µM (% DMSO) has been reported for the following molecule? CN(C)C(=O)Oc1ccc[n+](C)c1 [Pyridostigmine Bromide]
Result: 92.2

Task: Which 0.1 µM (% DMSO) is listed for Cc1ccc(Cl)c(Nc2ccccc2C(=O)O)c1Cl [Meclofenamic acid] ?
Result: 91.1

Task: Reported 0.1 µM (% DMSO) for CCc1cccc2c3c([nH]c12)C(CC)(CC(=O)O)OCC3 (centres unmarked) [Etodolac] : what is it?
Result: 98.7

Task: What does the data say about its 0.1 µM (% DMSO)? Entry: CN1CCN(CC/C=C2/c3ccccc3Sc3ccc(S(=O)(=O)N(C)C)cc32)CC1 [Thiothixene]
Result: 81.2

Task: I have this molecule here, CC(C)NCC(O)COc1cccc2ccccc12 (centres unmarked) [Propranolol] , and I need its recorded 0.1 µM (% DMSO).
Result: 95.6

Task: Dear colleague, I am looking for the recorded 0.1 µM (% DMSO) of the following molecule: CNC(=C[N+](=O)[O-])NCCSCc1ccc(CN(C)C)o1 [Ranitidine]
Result: 109.0

Task: Form field: reported 0.1 µM (% DMSO) of CN1CCN(C2=Nc3cc(Cl)ccc3Nc3ccccc32)CC1 [Clozapine]
Result: 78.7

Task: Item under review: NCc1ccc(S(N)(=O)=O)cc1 [Mafenide] . Reported 0.1 µM (% DMSO)?
Result: 97.9

Task: Fill in: 0.1 µM (% DMSO) of CC(C)Cc1ccc(C(C)C(=O)O)cc1 (centres unmarked) [Ibuprofen] is ___
Result: 91.7

Task: Look up 0.1 µM (% DMSO): O=S(=O)(O)CCS [Mesna]
Result: 92.5

Task: Can you share its 0.1 µM (% DMSO)? I mean this molecule: NS(=O)(=O)c1cc2c(cc1C(F)(F)F)NC(Cc1ccccc1)NS2(=O)=O (centres unmarked) [Bendroflumethiazide]
Result: 95.4

* * *

Tested on: expanded OPCs
Test: cells
Details: alamarBlue viability of expanded OPCs, compound at 10 µM, relative to DMSO control
Reported 10 µM (% DMSO) maps to class as: lower range: < 60 % DMSO; middle range: ≥ 60 % DMSO and < 90 % DMSO; upper range: ≥ 90 % DMSO

Task: Hi, small favor: classify `CO[C@H]1/C=C/O[C@@]2(C)Oc3c(C)c(O)c4c(O)c(c(/C=N/N5CCN(C6CCCC6)CC5)c(O)c4c3C2=O)NC(=O)/C(C)=C\C=C\[C@H](C)[C@H](O)[C@@H](C)[C@@H](O)[C@@H](C)[C@H](OC(C)=O)[C@@H]1C` by its 10 µM (% DMSO) when you get a moment.
Result: lower range

Task: Exam item: assign `C[C@H](CCC(=O)O)[C@H]1CC[C@H]2[C@@H]3[C@H](O)C[C@@H]4C[C@H](O)CC[C@]4(C)[C@H]3CC[C@]12C` to the correct category.
Result: upper range

Task: Where would `COC1=CC(=O)C[C@@H](C)[C@]12Oc1c(Cl)c(OC)cc(OC)c1C2=O` land among the classes by reported 10 µM (% DMSO)?
Result: middle range

Task: Sort `CN1[C@@H]2CC[C@H]1C[C@@H](OC(c1ccccc1)c1ccccc1)C2` into one of the categories.
Result: lower range

Task: Class (by measured 10 µM (% DMSO)) for COc1cc(NC(C)CCCN)c2ncccc2c1 (centres unmarked)
Result: lower range

Task: Sort `COc1c2occc2cc2ccc(=O)oc12` into one of the categories.
Result: middle range

Task: Record `Cn1cnc([N+](=O)[O-])c1Sc1ncnc2nc[nH]c12` — which class?
Result: middle range

Task: Form field 'band' for `Fc1ccc([C@@H]2CCNC[C@H]2COc2ccc3c(c2)OCO3)cc1`
Result: lower range

Task: Which category does the recorded 10 µM (% DMSO) put `O=C1CC2(CCCC2)CC(=O)N1CCCCN1CCN(c2ncccn2)CC1` in?
Result: upper range

Task: Which 10 µM (% DMSO) category applies to CC/C(=C(\c1ccccc1)c1ccc(OCCN(C)C)cc1)c1ccccc1 [Tamoxifen, reference compound] here?
Result: lower range

Task: Just checking, what class would you give CC(C(=O)O)c1cccc(C(=O)c2ccccc2)c1 (centres unmarked) here?
Result: upper range

Task: # bin label for `O=c1[nH]c(=O)n([C@H]2C[C@H](O)[C@@H](CO)O2)cc1F`
Result: middle range

Task: # bin lookup: classify CC(=O)OCC(=O)[C@@]12OC3(CCCC3)O[C@@H]1C[C@H]1[C@@H]3CCC4=CC(=O)C=C[C@]4(C)[C@@]3(F)[C@@H](O)C[C@@]12C [Amcinonide] by its 10 µM (% DMSO)
Result: upper range

Task: // bin(item) where item = CC(=O)OCC(=O)[C@@]1(O)CC[C@H]2[C@@H]3CCC4=CC(=O)CC[C@]4(C)[C@H]3C(=O)C[C@@]21C [Cortisone acetate]
Result: middle range

Task: Could you tell me which band CC(C)NCC(O)c1ccc(O)c(O)c1 (centres unmarked) belongs to?
Result: middle range

Task: Pick a category. Item: `Nc1nc2ncc(CNc3ccc(C(=O)N[C@@H](CCC(=O)O)C(=O)O)cc3)nc2c(=O)[nH]1`
Result: upper range

Task: # bin lookup: classify `Cc1cccc(Nc2ccccc2C(=O)O)c1C` by its 10 µM (% DMSO)
Result: middle range

Task: Band for Clc1ccc(COC(Cn2ccnc2)c2ccc(Cl)cc2Cl)cc1 (centres unmarked) ?
Result: lower range

Task: Into which bin does this compound go? CCc1c(C)[nH]c2c1C(=O)C(CN1CCOCC1)CC2 (centres unmarked)
Result: upper range

Task: Please report the category associated with CNC[C@H](O)c1ccc(O)c(O)c1 [Epinephrine] , nothing else.
Result: middle range

Task: Class? Entry: `Cn1cc[nH]c1=S`
Result: middle range

Task: Pick a category. Item: `COC(=O)Nc1nc2ccc(C(=O)c3ccccc3)cc2[nH]1`
Result: lower range

Task: Quick check: band for `C[C@](N)(Cc1ccc(O)c(O)c1)C(=O)O`
Result: middle range

Task: Category of CCc1cc(C(N)=S)ccn1 [Ethionamide] , please.
Result: middle range

Task: Form field 'band' for CCCC(=O)Nc1ccc(OCC(O)CNC(C)C)c(C(C)=O)c1 (centres unmarked)
Result: upper range

Task: Given `c1ccc2c(CC3=NCCN3)cccc2c1` , name the class its 10 µM (% DMSO) places it in.
Result: middle range

Measured values drawn from paper PMC5011342 for this set.
